test: growth inhibition of WT strain, primary screen, mitochondrial fusion inhibitor project, WT and mutant strains, chemical genetic (AID 1362); conditions: mitochondrial fusion phenotypic screen, WT strain, growth inhibition; at 10 µM
Hit rate of the full screen: of about 190,000 compounds, about 4,000 (2.1%) were called active. Rule as the data show it: active = inhibition above about 58%; inactive = the rest, inconclusive results apart; tested in S. cerevisiae. Only a selection was taken, and actives are over-represented in it overall.
// one of class 1 (active), class 0 (inactive), no free text

Below are worked cases with known answers.
Cc1cc(C)c(C2C3=C(Nc4c2c(C)nn4-c2ccccn2)c2ccccc2C3=O)c(C)c1 (stereo unspecified) | class 1
Cc1c(C(=O)N2CCOCC2)[nH]c2ccc(OCc3ccccc3)cc12 | class 0
Cc1cccc(NC(=S)NCCc2ccc(F)cc2)c1C | class 1
CCNC(=S)Nc1cccc(Cl)c1C | class 0
COCC(C)NC(=O)CSc1nc2nn(-c3ccccc3)c(=O)c-2c2n1CCCCC2 (stereo unspecified) | class 0

How did this test come out for COCCN(CCOC)S(=O)(=O)c1ccc(/C(O)=C(\C#N)c2nc3ccccc3[nH]2)cc1 ?
class 0

====

Each entry below carries its reported inhibition.
test: growth inhibition of WT strain, primary screen, mitochondrial fusion inhibitor project, WT and mutant strains, chemical genetic (AID 1362); conditions: mitochondrial fusion phenotypic screen, mutant strain inhibition; at 10 µM
The campaign covered roughly 190,000 compounds. About 4,000 (2.1%) were called active. The sample holds actives, similar compounds and a random draw of the others, so the mix is not that of the screen.
Hi! Could you send only the number? It should be in %, unit omitted.

CCC(C(=O)OCC(=O)Nc1ccccc1-c1ccccc1)c1ccccc1 (stereo not given) | -2.32
Cc1ccc(C(=O)N2CCN(S(=O)(=O)N3CCOCC3)CC2)cc1 | 9.09
O=S1(=O)CC/C(=N\Nc2ccc(F)cc2)c2ccsc21 | 34.7
CC1(C)C=C2[C@H]3CC[C@@H]4[C@@]5(C)CCC(=O)C(C)(C)[C@@H]5CC[C@@]4(C)[C@]3(C)CC[C@@]2(C(=O)O)CC1 | -18.6

Pending compound:
The compound identified as CCC(C(=O)OCC(=O)Nc1ccc(C(=O)Nc2ccc(OC)cc2)cc1)c1ccccc1 (stereo not given) registered its inhibition at -13.4

====

Each entry below carries its reported inhibition.
test: growth inhibition of WT strain, primary screen, mitochondrial fusion inhibitor project, WT and mutant strains, chemical genetic (AID 1362); conditions: mitochondrial fusion phenotypic screen, mutant strain inhibition; at 10 µM
In all, about 190,000 compounds went through this assay and about 4,000 (2.1%) were called active. This excerpt belongs to a sample that is enriched for actives.
Hi! Could you send only the number? It should be in %, unit omitted.

Worked cases, answers included:
O=C(c1ccc(-c2ccccc2)cc1)C1CCCN(C(=O)c2cncs2)C1 (stereo unspecified) | 9.01
Fc1ccc(Cn2nnnc2C(c2cccs2)N2CCCCCC2)cc1 (stereo unspecified) | 11.4
CCC(C)(C)n1nnnc1C(c1cccs1)N1CCN(Cc2ccccc2)CC1 (stereo unspecified) | 21.9
COC(=O)C1=C(C)N(c2ccc(C)cc2)/C(=C/c2ccc(O)cc2)C1=O | 0.5
O=Cc1cn(Cc2ccccc2)nc1-c1cccnc1 | 3.85

The compound identified as C=CCNC(=S)NNC(=O)COc1c(Cl)cc(Cl)cc1Cl registered its inhibition at 29.7

The compound identified as O=c1[nH]n(-c2cccc(Cl)c2)c2ncccc12 registered its inhibition at 33.7

The compound identified as COc1ccc(C)cc1NC(=O)c1ccc(-c2ccc(C(C)=O)cc2)o1 registered its inhibition at 5.74

The compound identified as C=CCNC(=S)NNC(=O)c1ccc(Br)o1 registered its inhibition at 3.41

The compound identified as C=CCNC(=O)COC(=O)CNC(=O)c1cc(Cl)cc([N+](=O)[O-])c1 registered its inhibition at 10.8

The compound identified as Cc1[nH]n(-c2cccc(Cl)c2)c(=O)c1/C=N/n1c(C)nc2ccccc2c1=O registered its inhibition at -9.97

====

assay: growth inhibition of WT strain, primary screen, mitochondrial fusion inhibitor project, WT and mutant strains, chemical genetic (AID 1362); conditions: mitochondrial fusion phenotypic screen, mutant strain inhibition; at 10 µM
Among all 190,000 compounds or so, about 4,000 (2.1%) were called active. The entries come from a sample that favours actives as a whole.
Each entry below carries its reported inhibition.
Hi! Could you send only the number? It should be in %, unit omitted.

Worked cases, answers included:
Cc1ccc(Nc2c(F)c(F)c(F)c(F)c2C(=O)O)c(C)c1 | -18
CN(C)CC(O)COc1ccc(C(C)(C)c2ccc(OCC(O)CN(C)C)cc2)cc1 (stereo not given) | -3.67
O=C(OCC(=O)N1CCOCC1)c1ccc(N2CCOCC2)c([N+](=O)[O-])c1 | -1.16
CSC1=N/C(=C\C=C\c2cccs2)C(=O)S1 | 37.4
c1ccc2c(c1)OCC(CNc1ncnc3nc[nH]c13)O2 (stereo not given) | -5.69

The compound identified as CC(C)(c1ccccc1)c1ccc(OCCN)cc1 registered its inhibition at 43.4

The compound identified as Cc1ccc(C)c(-n2ccnc2SCC(N)=O)c1 registered its inhibition at 13.6

The compound identified as O=C(CN1C(=O)/C(=C\c2ccc(C(F)(F)F)cc2)Sc2ccccc21)NCc1ccco1 registered its inhibition at 3.15

====

assay: growth inhibition of WT strain, primary screen, mitochondrial fusion inhibitor project, WT and mutant strains, chemical genetic (AID 1362); conditions: mitochondrial fusion phenotypic screen, mutant strain inhibition; at 10 µM
Screen size: about 190,000 compounds; about 4,000 (2.1%) were called active. The list comes from a sample in which actives are over-represented; it also holds close analogues and randomly drawn compounds.
Output met for inhibition not less than 10%; output not met otherwise.

Below are worked cases with known answers.
COCCn1c(CN(Cc2ccccc2)Cc2ccccc2)nc2c1c(=O)n(C)c(=O)n2C | not met
O=[N+]([O-])c1ccc(Oc2ccc(F)cc2Br)c2ccncc12 | met
CCOC(=O)C1CCc2nc3ccccc3c(=O)n21 (stereo not drawn) | met
CCC(=O)NC(=S)Nc1ccc(NC(=O)c2ccco2)c(Cl)c1 | not met

Hello, I need to know if Cc1cc(O)c(NC(=O)c2ccc(C)c([N+](=O)[O-])c2)cc1C has measured inhibition not below 10%. Thanks!
not met

Hello, I need to know if Cc1cc(C)cc(NC(=S)NCCc2c[nH]c3ccccc23)c1 has measured inhibition not below 10%. Thanks!
met

Hello, I need to know if O=C(c1ccc(C(F)(F)F)cc1)C1CCCN(C(=O)c2csnn2)C1 (stereo not drawn) has measured inhibition not below 10%. Thanks!
met

Hello, I need to know if CN(C)CCCN(C(=O)COc1ccccc1)c1nc2c(Cl)cccc2s1 has measured inhibition not below 10%. Thanks!
met

Hello, I need to know if COc1cccc2sc(N(CCCN(C)C)C(=O)C(c3ccccc3)c3ccccc3)nc12 has measured inhibition not below 10%. Thanks!
met

Hello, I need to know if O=C(NCc1nnc(SCC(=O)N2CCCc3ccccc32)o1)c1ccccc1F has measured inhibition not below 10%. Thanks!
not met

Hello, I need to know if COc1ccc(Br)cc1CN(C)CC(=O)Nc1cc(Cl)cc(Cl)c1 has measured inhibition not below 10%. Thanks!
not met

Hello, I need to know if CC(C)(CNC(=O)c1cc(=O)[nH]c2ccccc12)N1CCOCC1 has measured inhibition not below 10%. Thanks!
not met

Hello, I need to know if O=[N+]([O-])c1ccc(F)cc1Oc1nc(-c2cccnc2)nc2ccccc12 has measured inhibition not below 10%. Thanks!
not met

Hello, I need to know if S=C(NCc1ccc(Cl)cc1)NC1CCCCC1 has measured inhibition not below 10%. Thanks!
met

Hello, I need to know if CCN1CCN(C(C(=O)NC2CCCC2)c2cc3c(cc2[N+](=O)[O-])OCO3)CC1 (stereo not drawn) has measured inhibition not below 10%. Thanks!
not met

Hello, I need to know if O=C(/C(=N\O)n1cncn1)c1ccc(Br)cc1Br has measured inhibition not below 10%. Thanks!
not met

Hello, I need to know if Cc1cc(C)n2nc(SCC(N)=O)nc2n1 has measured inhibition not below 10%. Thanks!
not met

Hello, I need to know if CN(C)CCCNC(=S)NCc1ccc(Cl)cc1 has measured inhibition not below 10%. Thanks!
not met

Hello, I need to know if CCn1c(N)c(Br)c(=O)[nH]c1=O has measured inhibition not below 10%. Thanks!
not met

====

assay: growth inhibition of WT strain, primary screen, mitochondrial fusion inhibitor project, WT and mutant strains, chemical genetic (AID 1362); settings: mitochondrial fusion phenotypic screen, WT strain, growth inhibition; at 10 µM; stronger effect = higher value
Screen size: about 190,000 compounds; about 4,000 (2.1%) were called active. The full list was thinned out, with actives kept by preference.
Output true (1) for inhibition not less than 10%; output false (0) otherwise.

COc1cc(CNc2ncn[nH]2)ccc1OCc1ccccc1C | false (0)
O=C(Cc1ccccc1)NNC(=O)C1CCN(c2ncccn2)CC1 | false (0)
c1n[nH]c(NCc2ccc3c(c2)OCO3)n1 | true (1)
O=C(CSc1ncn[nH]1)NCc1ccc2c(c1)OCO2 | false (0)
CC(/C=C/c1ccccc1)=N\NC(=O)C1CC1(C)c1ccccc1 (configuration not stated) | true (1)
C/C(=N\NC(=O)c1cccc(N2CCCC2=O)c1)c1ccc(N)cc1 | false (0)
O=C(/C=C/c1ccccc1)c1ccccc1O | true (1)
O=C(N/N=C/C=C/c1ccccc1)C1CC1(c1ccccc1)c1ccccc1 (configuration not stated) | true (1)

Hello, I need to know if COc1nc(NC2CCCCC2)nc(N2CCCCCC2)n1 has measured inhibition not below 10%. Thanks!
true (1)

Hello, I need to know if COc1ccc(CCN=C2SCC(=O)N2Cc2ccccc2)cc1OC has measured inhibition not below 10%. Thanks!
false (0)

Hello, I need to know if FC(F)(F)COc1nc(N2CCCCC2)nc(N2CCNCC2)n1 has measured inhibition not below 10%. Thanks!
false (0)
